Sourced from patent US11225505B2

# Minimum inhibitory concentration values compiled below
# System: Pseudomonas aeruginosa ATCC 27853
# Assay type: cell-based
# condition: ATCC 27853
Where a SMILES comes first, the peptide text is derived from it. Bridges are numbered along the chain shown (N, C = ends). [ ]: non-standard residue; d: D form. The star is where a group is joined. X43 = O=C(c1ccc(-c2ccc(Cl)cc2)cn1)*; X49 = O=C(c1cnc(C(F)(F)F)nc1)*; X21 = O=C(c1cnc(Cl)cc1Cl)*; Dab = NCC[C@H](N)C(=O)O; Abu = CC[C@H](N)C(=O)O; Dap = NC[C@H](N)C(=O)O
quantity name: Minimum inhibitory concentration (µg/mL)

molecule="CC(C)C[C@H]1NC(=O)[C@H](CCN)NC(=O)[C@@H](NC(=O)[C@H](CN)NC(=O)[C@@H](NC(=O)[C@H](CCN)NC(=O)c2ccc(-c3ccc(Cl)cc3)cn2)[C@@H](C)O)CCNC(=O)[C@H]([C@@H](C)O)NC(=O)[C@H](CCN)NC(=O)[C@H](CCN)NC(=O)[C@H]([C@@H](C)O)NC1=O [Compound 15] (X43-[Dab]T[Dap][Dab][Dab][dL]T[Dab][Dab]T; lactam 4-C)" observed_measurement=1
molecule="CC[C@@H]1NC(=O)[C@@H](CC(C)C)NC(=O)[C@H](CCN)NC(=O)[C@@H](NC(=O)[C@H](CN)NC(=O)[C@@H](NC(=O)[C@H](CCN)NC(=O)c2cnc(Cl)cc2Cl)[C@@H](C)O)CCNC(=O)[C@H]([C@@H](C)O)NC(=O)[C@H](CCN)NC(=O)[C@H](CCN)NC1=O [Compound 2] (X21-[Dab]T[Dap][Dab][Dab][dL][Abu][Dab][Dab]T; lactam 4-C)" observed_measurement=0.5
molecule="CC[C@@H]1NC(=O)[C@@H](CC(C)C)NC(=O)[C@H](CCN)NC(=O)[C@@H](NC(=O)[C@H](CN)NC(=O)[C@@H](NC(=O)[C@H](CCN)NC(=O)c2cnc(C(F)(F)F)nc2)[C@@H](C)O)CCNC(=O)[C@H]([C@@H](C)O)NC(=O)[C@H](CCN)NC(=O)[C@H](CCN)NC1=O [Compound 45] (X49-[Dab]T[Dap][Dab][Dab][dL][Abu][Dab][Dab]T; lactam 4-C)" observed_measurement=0.25

###

List of Minimum inhibitory concentration values.
# Test system: Pseudomonas aeruginosa ATCC 27853
# Type: cell-based
# condition: ATCC 27853
Where a SMILES comes first, the peptide text is derived from it. Bridges are numbered along the chain shown (N, C = ends). [ ]: non-standard residue; d: D form. The star is where a group is joined. Pyrrole2carbonyl(4,5-Br2) = O=C(c1cc(Br)c(Br)[nH]1)*; X44 = O=C(c1cc(-c2ccccc2)no1)*; X38 = O=C(c1cc2sccc2[nH]1)*; X12 = CCc1ccc(C(=O)*)nc1; Dab = NCC[C@H](N)C(=O)O; X40 = Cc1cncc(C(=O)*)c1; X61 = O=C(c1ccc(Br)s1)*; Abu = CC[C@H](N)C(=O)O; Dap = NC[C@H](N)C(=O)O
quantity name: Minimum inhibitory concentration (mg/L)

molecule="CC[C@@H]1NC(=O)[C@@H](CC(C)C)NC(=O)[C@H](CCN)NC(=O)[C@@H](NC(=O)[C@H](CN)NC(=O)[C@@H](NC(=O)[C@H](CCN)NC(=O)c2cc(Br)c(Br)[nH]2)[C@@H](C)O)CCNC(=O)[C@H]([C@@H](C)O)NC(=O)[C@H](CCN)NC(=O)[C@H](CCN)NC1=O [Compound 77] ({Pyrrole2carbonyl(4,5-Br2)}-[Dab]T[Dap][Dab][Dab][dL][Abu][Dab][Dab]T; lactam 4-C)" target_entity="Pseudomonas aeruginosa ATCC 27853" quantity_name="Minimum inhibitory concentration" qual== observed_measurement=0.25
molecule="CC[C@@H]1NC(=O)[C@@H](CC(C)C)NC(=O)[C@H](CCN)NC(=O)[C@@H](NC(=O)[C@H](CN)NC(=O)[C@@H](NC(=O)[C@H](CCN)NC(=O)c2cc3sccc3[nH]2)[C@@H](C)O)CCNC(=O)[C@H]([C@@H](C)O)NC(=O)[C@H](CCN)NC(=O)[C@H](CCN)NC1=O [Compound 90] (X38-[Dab]T[Dap][Dab][Dab][dL][Abu][Dab][Dab]T; lactam 4-C)" target_entity="Pseudomonas aeruginosa ATCC 27853" quantity_name="Minimum inhibitory concentration" qual== observed_measurement=0.5
molecule="CC[C@@H]1NC(=O)[C@@H](CC(C)C)NC(=O)[C@H](CCN)NC(=O)[C@@H](NC(=O)[C@H](CN)NC(=O)[C@@H](NC(=O)[C@H](CCN)NC(=O)c2cncc(C)c2)[C@@H](C)O)CCNC(=O)[C@H]([C@@H](C)O)NC(=O)[C@H](CCN)NC(=O)[C@H](CCN)NC1=O [Compound 30] (X40-[Dab]T[Dap][Dab][Dab][dL][Abu][Dab][Dab]T; lactam 4-C)" target_entity="Pseudomonas aeruginosa ATCC 27853" quantity_name="Minimum inhibitory concentration" qual== observed_measurement=0.5
molecule="CCc1ccc(C(=O)N[C@@H](CCN)C(=O)N[C@H](C(=O)N[C@@H](CN)C(=O)N[C@H]2CCNC(=O)[C@H]([C@@H](C)O)NC(=O)[C@H](CCN)NC(=O)[C@H](CCN)NC(=O)[C@H](CC)NC(=O)[C@@H](CC(C)C)NC(=O)[C@H](CCN)NC2=O)[C@@H](C)O)nc1 [Compound 42] (X12-[Dab]T[Dap][Dab][Dab][dL][Abu][Dab][Dab]T; lactam 4-C)" target_entity="Pseudomonas aeruginosa ATCC 27853" quantity_name="Minimum inhibitory concentration" qual=< observed_measurement=0.125
molecule="CC[C@@H]1NC(=O)[C@@H](CC(C)C)NC(=O)[C@H](CCN)NC(=O)[C@@H](NC(=O)[C@H](CN)NC(=O)[C@@H](NC(=O)[C@H](CCN)NC(=O)c2cc(-c3ccccc3)no2)[C@@H](C)O)CCNC(=O)[C@H]([C@@H](C)O)NC(=O)[C@H](CCN)NC(=O)[C@H](CCN)NC1=O [Compound 87] (X44-[Dab]T[Dap][Dab][Dab][dL][Abu][Dab][Dab]T; lactam 4-C)" target_entity="Pseudomonas aeruginosa ATCC 27853" quantity_name="Minimum inhibitory concentration" qual== observed_measurement=1
molecule="CC[C@@H]1NC(=O)[C@@H](CC(C)C)NC(=O)[C@H](CCN)NC(=O)[C@@H](NC(=O)[C@H](CN)NC(=O)[C@@H](NC(=O)[C@H](CCN)NC(=O)c2ccc(Br)s2)[C@@H](C)O)CCNC(=O)[C@H]([C@@H](C)O)NC(=O)[C@H](CCN)NC(=O)[C@H](CCN)NC1=O [Compound 78] (X61-[Dab]T[Dap][Dab][Dab][dL][Abu][Dab][Dab]T; lactam 4-C)" target_entity="Pseudomonas aeruginosa ATCC 27853" quantity_name="Minimum inhibitory concentration" qual== observed_measurement=0.25

###

# System: Acinetobacter baumannii FADDI-AB030
# run description: microbe, parasite or virus in culture
# Assay type: cell-based
# condition: FADDI-AB030
Where a SMILES comes first, the peptide text is derived from it. Bridges are numbered along the chain shown (N, C = ends). [ ]: non-standard residue; d: D form. The star is where a group is joined. X18 = O=C(c1cc(-c2ccccc2)[nH]n1)*; X67 = O=C(c1cc(Br)sc1Br)*; X25 = O=C(c1ccnc(Cl)c1)*; Dab = NCC[C@H](N)C(=O)O; Abu = CC[C@H](N)C(=O)O; Dap = NC[C@H](N)C(=O)O
quantity name: Minimum inhibitory concentration

compound="CC[C@@H]1NC(=O)[C@@H](CC(C)C)NC(=O)[C@H](CCN)NC(=O)[C@@H](NC(=O)[C@H](CN)NC(=O)[C@@H](NC(=O)[C@H](CCN)NC(=O)c2ccnc(Cl)c2)[C@@H](C)O)CCNC(=O)[C@H]([C@@H](C)O)NC(=O)[C@H](CCN)NC(=O)[C@H](CCN)NC1=O [Compound 24] (X25-[Dab]T[Dap][Dab][Dab][dL][Abu][Dab][Dab]T; lactam 4-C)" target_entity="Acinetobacter baumannii FADDI-AB030" observed_measurement="1 µg/mL"
compound="CC[C@@H]1NC(=O)[C@@H](CC(C)C)NC(=O)[C@H](CCN)NC(=O)[C@@H](NC(=O)[C@H](CN)NC(=O)[C@@H](NC(=O)[C@H](CCN)NC(=O)c2cc(-c3ccccc3)[nH]n2)[C@@H](C)O)CCNC(=O)[C@H]([C@@H](C)O)NC(=O)[C@H](CCN)NC(=O)[C@H](CCN)NC1=O [Compound 84] (X18-[Dab]T[Dap][Dab][Dab][dL][Abu][Dab][Dab]T; lactam 4-C)" target_entity="Acinetobacter baumannii FADDI-AB030" observed_measurement="0.5 µg/mL"
compound="CC[C@@H]1NC(=O)[C@@H](CC(C)C)NC(=O)[C@H](CCN)NC(=O)[C@@H](NC(=O)[C@H](CN)NC(=O)[C@@H](NC(=O)[C@H](CCN)NC(=O)c2cc(Br)sc2Br)[C@@H](C)O)CCNC(=O)[C@H]([C@@H](C)O)NC(=O)[C@H](CCN)NC(=O)[C@H](CCN)NC1=O [Compound 76] (X67-[Dab]T[Dap][Dab][Dab][dL][Abu][Dab][Dab]T; lactam 4-C)" target_entity="Acinetobacter baumannii FADDI-AB030" observed_measurement="0.25 µg/mL"
